measure: melting point

Cn1cnnc1COc1nn2c(-c3cc(Cl)on3)nnc2c2ccccc12
239 to 241 °C
Cn1ccnc1C1Cn2cc(C(=O)NCc3ccc(Cl)cc3)c(=O)c3cc(CN4CCOCC4)cc(c32)O1 (stereo unspecified)
> 260 °C
Cc1cc(C)c2nc3sccn3c(=O)c2c1
190 to 192 °C
N#Cc1c(N2CCc3ccccc3CC2)nc(N)[nH]c1=O
> 200 °C
COc1cc(Cl)c2c(=O)c(-c3ccccc3C)coc2c1
159 to 160 °C

Exercise: Return reported melting point; argument: `O=C(Nc1ccc(OS(=O)(=O)c2cccc(C(F)(F)F)c2)cc1[N+](=O)[O-])NS(=O)(=O)Cl`
Key: 152 °C

Provenance of the data: a melting point compilation (Tetko et al.; mined from patent text by program, amines drawn as free bases though some values may be those of a salt)
